Each recorded value in this set is attributed to patent US20160257697A1.

Assign pIC50 to each entry below.
- System: HCV replicon 2B
- TEST_NAME: microbe, parasite or virus in culture
- Type: cell-based, Hepatitis C virus (HCV)
- CONDITION_SUMMARY: read-out: 2B IC50; HCV replicon 2B; Replicon Assay A
- Description: To measure cell-based anti-HCV activity of compounds of the present invention, two complimentary assays were employed using various replicons. […] The replicon RNA level was measured using real time PCR (TaqMan® EZ RT-PCR, Applied Biosystems 403028) with the following primers and probes: […] The amount of HCV replicon RNA per cell is quantified using a linear regression curve for a known nanogram (ng) amount of HCV replicon total RNA. […]
Friendly reminder that pIC50 comes from taking -log10 of the concentration in mol/L.

[Q] Endpoint output: pIC50 of COC(=O)N[C@H](C(=O)N1C[C@H](F)C[C@H]1c1nc(-c2ccc3c(c2)OC(c2ccc(C)s2)n2c-3cc3cc(-c4c[nH]c([C@@H]5C[C@H]6C[C@H]6N5C(=O)[C@@H](NC(=O)OC)C5CCOCC5)n4)ccc32)c[nH]1)C1CCOCC1 (single isomer, unassigned) [Compound 730] . Value?
[A] 9.89

[Q] Endpoint output: pIC50 of COC(=O)N[C@H](C(=O)N1CCC[C@H]1c1ncc(-c2cc(F)c3c(c2)OC(c2cc(C)c(C)s2)n2c-3cc3cc(-c4cnc([C@@H]5C[C@H]6C[C@H]6N5C(=O)[C@@H](NC(=O)OC)C(C)C)[nH]4)ccc32)[nH]1)C(C)C (single isomer, unassigned) [Compound 508] . Value?
[A] 8.15

[Q] Endpoint output: pIC50 of COC(=O)NC(C(=O)N1CCC[C@H]1c1ncc(-c2ccc3c(c2)cc2n3C(c3ccc(C4CCCC4)s3)Oc3cc(-c4cnc([C@@H]5CCCN5C(=O)[C@@H](NC(=O)OC)C(C)C)[nH]4)cc(F)c3-2)[nH]1)C1C[C@@H](C)O[C@@H](C)C1 (single isomer, unassigned) [Compound 657] . Value?
[A] 10.03

[Q] Endpoint output: pIC50 of COCc1ccc(C2Oc3cc(-c4cnc([C@@H]5CCCN5C(=O)[C@@H](NC(=O)OC)C(C)C)[nH]4)cc(F)c3-c3cc4cc(-c5cnc([C@@H]6CCCN6C(=O)[C@@H](NC(=O)OC)[C@@H]6C[C@@H](C)O[C@@H](C)C6)[nH]5)ccc4n32)s1 (single isomer, unassigned) [Compound 534] . Value?
[A] 10.70

[Q] Endpoint output: pIC50 of COC(=O)N[C@H](C(=O)N1CCC[C@H]1c1ncc(-c2cc(F)c3c(c2)OC(c2cc4c(s2)CCCO4)n2c-3cc3cc(-c4cnc([C@@H]5CCCN5C(=O)[C@@H](NC(=O)OC)C5CCOC(C)(C)C5)[nH]4)ccc32)[nH]1)C(C)C (single isomer, unassigned) [Compound 411] . Value?
[A] 9.70

[Q] Endpoint output: pIC50 of COC(=O)N[C@H](C(=O)N1CCC[C@H]1c1ncc(-c2cc(C)c3c(c2)OC(c2cc4c(s2)CCC4)n2c-3cc3cc(-c4cnc([C@@H]5CCCN5C(=O)[C@@H](NC(=O)OC)C5C[C@@H](C)O[C@@H](C)C5)[nH]4)ccc32)[nH]1)C(C)C (single isomer, unassigned) [Compound 549] . Value?
[A] 9.77

[Q] Endpoint output: pIC50 of COC(=O)N[C@H](C(=O)N1CCC[C@H]1c1nc(-c2ccc3c(c2)OC(c2ccc(C)s2)n2c-3cc3cc(-c4c[nH]c([C@@H]5NCCN5C(=O)[C@@H](NC(=O)OC)C(C)C)n4)ccc32)c[nH]1)C(C)C (single isomer, unassigned) [Compound 702] . Value?
[A] 8.40
